MEASURE: IC50 (nM)
State the answer as a number, implicitly in nM.

Measured on WD repeat-containing protein 5 (Homo sapiens), Cc1c(F)c(N)cc(C(=O)Nc2cc(C(=O)OC3CCCCC3)ccc2N2CCN(C)CC2)c1Cl has a documented IC50 of 58.8

Sample CC(C)OC(=O)c1ccc(N2CCN(C)CC2)c(NC(=O)c2ccc(F)c([N+](=O)[O-])c2)c1 , system: WD repeat-containing protein 5 (Homo sapiens). Its IC50 is 1170

Tested on WD repeat-containing protein 5 (Homo sapiens), the item COC(=O)c1ccc(N2CCN(C)CC2)c(NC(=O)c2cc([N+](=O)[O-])c(F)c(C)c2Cl)c1 showed IC50 equal to 245

IC50 value, target or system WD repeat-containing protein 5 (Homo sapiens), for COC(=O)c1ccc(N2CCN(C)CC2)c(NC(=O)c2ccc(F)c([N+](=O)[O-])c2)c1 : 454

###

Test: Permeability of the compound after 4 hrs by PAMPA
Assay type: ADME
Conditions: read-out: permeability
Task for the reader: assign each of the following molecules its reported Papp at 4 h.
Report the value in nm/s with no unit label.

Per the record, CCOC(=O)c1ccc(N2CCN(C)CC2)c(NC(=O)c2ccc(F)c(C)c2Cl)c1 has Papp at 4 h of 449

For CC(C)NCC(O)COc1cccc2ccccc12 (stereo not drawn) the molecule record lists Papp at 4 h as 987

Entry COC(=O)c1ccc(N2CCN(C)CC2)c(NC(=O)c2ccc(F)c(C)c2Cl)c1 , Papp at 4 h reported as 598

For this molecule ( Cc1c(F)c(N)cc(C(=O)Nc2cc(C(=O)Oc3ccccc3)ccc2N2CCN(C)CC2)c1Cl ), measured Papp at 4 h is 380

Just so you know, measured Papp at 4 h for CN1CCN(c2ccc(C(=O)Oc3ccccc3)cc2NC(=O)c2ccc(F)c([N+](=O)[O-])c2)CC1 came out at 600

The molecule Cc1c(F)ccc(C(=O)Nc2cc(C(=O)OC(C)C)ccc2N2CCN(C)CC2)c1Cl showed Papp at 4 h equal to 498

Given item COC(=O)c1ccc(N2CCN(C)CC2)c(NC(=O)c2ccc(F)c([N+](=O)[O-])c2)c1 , the value recorded as its Papp at 4 h is 524

Papp at 4 h measured on Cc1c(F)c(N)cc(C(=O)Nc2cc(C(=O)OC3CCCCC3)ccc2N2CCN(C)CC2)c1Cl = 56

Given item COC(=O)c1ccc(N2CCN(C)CC2)c(NC(=O)c2cc([N+](=O)[O-])c(F)c(C)c2Cl)c1 , the value recorded as its Papp at 4 h is 748

For this molecule ( COC(=O)c1ccc(N2CCN(C)CC2)c(NC(=O)c2cc(N)c(F)c(C)c2Cl)c1 ), measured Papp at 4 h is 529

Cc1c(F)ccc(C(=O)Nc2cc(C(=O)Oc3ccccc3)ccc2N2CCN(C)CC2)c1Cl has a reported Papp at 4 h of 480

Papp at 4 h reported for this molecule Cc1c(F)c([N+](=O)[O-])cc(C(=O)Nc2cc(C(=O)Oc3ccccc3)ccc2N2CCN(C)CC2)c1Cl : 563

get_value(item= CC(C)OC(=O)c1ccc(N2CCN(C)CC2)c(NC(=O)c2ccc(F)c([N+](=O)[O-])c2)c1 , readout=Papp at 4 h) returns 614
